- PROCEDURE SUMMARY: Pharmacokinetics of compound (Ib) in rat, intravenous, plasma by HPLC
- Format: in vivo, rat (Fischer)
- ASSAY CONDITIONS: plasma, iv; rat (Fischer), i.v. 14.29 mg/kg, average of four rats, 5 min
ASSAY METRIC: concentration at 5 min
Please report the result as a number followed by the unit.

Request: Entry Nc1nc(/C(=N/OCc2ccco2)C(=O)NC2C(=O)N3C(C(=O)[O-])=C(C[n+]4ccccc4)CSC23)cs1 (stereo not shown) : reported concentration at 5 min = ?
Result: 60.6 µg/mL

* * *

- System: Escherichia coli ATCC 10536
- PROCEDURE SUMMARY: In-vitro antibacterial activity (MIC), two-fold dilution method
- Format: cell-based
- ASSAY CONDITIONS: ATCC10536; Escherichia coli ATCC 10536; Muller-Hinton agar, 37° C., 20 hours; read-out: minimal inhibitory concentration (MIC)
ASSAY METRIC: MIC (µg/mL)
Respond numerically; units are µg/mL and should not be typed.

Example compounds with recorded MIC:
CC(=O)OCC1=C(C(=O)O)N2C(=O)C(NC(=O)/C(=N\OCc3ccco3)c3csc(N)n3)C2SC1 (stereo not shown) :: 0.5
Cn1nnnc1SCC1=C(C(=O)O)N2C(=O)C(NC(=O)/C(=N\OCc3ccco3)c3csc(N)n3)C2SC1 (stereo not shown) :: 0.5

Request: Entry CO[C@@]1(NC(=O)C(C(=O)O)c2ccc(O)cc2)C(=O)N2C(C(=O)O)=C(CSc3nnnn3C)CO[C@@H]21 (stereo partly shown) [Moxalactam, reference compound] : reported MIC = ?
Result: 0.125

Request: Entry Nc1nc(/C(=N/OCc2ccco2)C(=O)NC2C(=O)N3C(C(=O)[O-])=C(C[n+]4ccccc4)CSC23)cs1 (stereo not shown) : reported MIC = ?
Result: 0.5

* * *

- Tested on: Pseudomonas aeruginosa ATCC 25619
- PROCEDURE SUMMARY: In-vitro antibacterial activity (MIC), two-fold dilution method
- Type: cell-based
- ASSAY CONDITIONS: ATCC25619; Pseudomonas aeruginosa ATCC 25619; Muller-Hinton agar, 37° C., 20 hours; read-out: minimal inhibitory concentration (MIC)
- Method: In-vitro antibacterial activity was determined by the two-fold dilution method as described below. 2 μl of the test microorganism which has the 10^7 CFU per ml was inoculated on the Muller-Hinton agar which has been dispersed by the test compound, and was incubated at 37° C. for 20 hours.
ASSAY METRIC: MIC (µg/mL)
Respond numerically; units are µg/mL and should not be typed.

Example molecules with recorded MIC:
Nc1nc(/C(=N/OCc2ccco2)C(=O)NC2C(=O)N3C(C(=O)[O-])=C(C[n+]4ccccc4)CSC23)cs1 (stereo not shown) :: 1
CC(=O)OCC1=C(C(=O)O)N2C(=O)C(NC(=O)/C(=N\OCc3ccco3)c3csc(N)n3)C2SC1 (stereo not shown) :: 1
Cn1nnnc1SCC1=C(C(=O)O)N2C(=O)C(NC(=O)/C(=N\OCc3ccco3)c3csc(N)n3)C2SC1 (stereo not shown) :: 1

The record that follows has no MIC shown yet.
Request: Entry CO[C@@]1(NC(=O)C(C(=O)O)c2ccc(O)cc2)C(=O)N2C(C(=O)O)=C(CSc3nnnn3C)CO[C@@H]21 (stereo partly shown) [Moxalactam, reference compound] : reported MIC = ?
Result: 8

The measured values listed here are drawn from patent US4971962A.
